system: Klebsiella pneumoniae HNR 828; experiment: MIC, twofold agar dilution method (clinically isolated strain); format: cell-based; details: HNR828; Klebsiella pneumoniae HNR 828, Gram -; 10^6 cfu/ml; 18 hrs at 37 °C
Property: MIC (µg/mL)
Your answer is read as µg/mL, so omit the unit and give the number.

# Compound, MIC, µg/mL
records = [
    ("CC1Sc2c(C(=O)O)c(=O)c3cc(F)c(N4CC[C@@H](N)C4)c(F)c3n21 (single isomer, unassigned) [Example 26]", 1.56),
    ("CC1Sc2c(C(=O)O)c(=O)c3cc(F)c(N4CCC(N)C4)cc3n21 (centres unmarked) [Ref. Drug D]", 50),
    ("CC1Sc2c(C(=O)O)c(=O)c3cc(F)c(N4CC[C@H](N)C4)c(F)c3n21 (single isomer, unassigned) [Example 18]", 0.78),
    ("CC1Sc2c(C(=O)O)c(=O)c3cc(F)c(N4CC[C@H](N)C4)c(Cl)c3n21 (single isomer, unassigned) [Example 15]", 0.78),
    ("CC1Sc2c(C(=O)O)c(=O)c3cc(F)c(N4CC[C@@H](N)C4)c(Cl)c3n21 (single isomer, unassigned) [Example 17]", 1.56),
]

Need MIC of CC1Sc2c(C(=O)O)c(=O)c3cc(F)c(N4CCNCC4)cc3n21 (centres unmarked) [Ref. Drug B] , thanks. 1.56

Need MIC of NC1CCN(c2c(F)cc3c(=O)c(C(=O)O)c4n(c3c2F)CS4)C1 (centres unmarked) [Ref. Drug E] , thanks. 50

Need MIC of CC1Sc2c(C(=O)O)c(=O)c3cc(F)c(N4CCNCC4)c(F)c3n21 (centres unmarked) [Ref. Drug C] , thanks. 3.13

====

system: Staphylococcuss aureus HPC 308; assay: MIC, twofold agar dilution method (clinically isolated strain); type: cell-based; conditions: Staphylococcuss aureus HPC 308, Gram +; 10^6 cfu/ml; 18 hrs at 37 °C
Listing of recorded MIC by entry.
Your answer is read as µg/mL, so omit the unit and give the number.

# Compound, Recorded Result
records = [
    ("CC1Sc2c(C(=O)O)c(=O)c3cc(F)c(N4CCNCC4)cc3n21 (centres unmarked)", 25),
    ("CC1Sc2c(C(=O)O)c(=O)c3cc(F)c(N4CC[C@@H](N)C4)c(F)c3n21 (single isomer, unassigned)", 0.78),
    ("CC1Sc2c(C(=O)O)c(=O)c3cc(F)c(N4CCC(N)C4)cc3n21 (centres unmarked)", 25),
    ("CC1Sc2c(C(=O)O)c(=O)c3cc(F)c(N4CC[C@@H](N)C4)c(Cl)c3n21 (single isomer, unassigned)", 0.78),
    ("CC1Sc2c(C(=O)O)c(=O)c3cc(F)c(N4CCNCC4)c(F)c3n21 (centres unmarked)", 6.25),
    ("CC1Sc2c(C(=O)O)c(=O)c3cc(F)c(N4CC[C@H](N)C4)c(F)c3n21 (single isomer, unassigned)", 0.39),
]

Need MIC of CC1Sc2c(C(=O)O)c(=O)c3cc(F)c(N4CC[C@H](N)C4)c(Cl)c3n21 (single isomer, unassigned) , thanks. 0.39

Need MIC of NC1CCN(c2c(F)cc3c(=O)c(C(=O)O)c4n(c3c2F)CS4)C1 (centres unmarked) , thanks. 100
